This collection of values is drawn from paper PMC7916974.

method-summary: Cytotoxicity assay (MTT), MDCK cells
Format: cell-based, canine
assay-context: dog
assay-metric: viability at 72 h, 800 µM

Task: Specify measured viability at 72 h, 800 µM for COC1=C(c2ccc(Cl)cc2)C(=O)OC1(C)COS(=O)(=O)Cc1ccccc1 (stereo not shown) .
Output: ~40%

* * *

method-summary: in vitro
Assay type: cell-based
assay-context: human
assay-metric: CC50 at 72 h

Task: Specify measured CC50 at 72 h for COC1=C(c2ccc(Cl)cc2)C(=O)OC1(C)COS(=O)(=O)Cc1ccccc1 (stereo not shown) .
Output: 309 µM
